target: Growth hormone secretagogue receptor type 1 (Homo sapiens, UniProt Q92847, M213A); experiment: Agonist activity at human ghrelin receptor Met5:05Ala(Met213) mutant expressed in african green monkey COS7 cells assessed as stimulation of constitutively stimulated inositol phosphate accumulation; assay type: functional, cell-based, COS-7
Sequence (Q92847 whole entry M213A): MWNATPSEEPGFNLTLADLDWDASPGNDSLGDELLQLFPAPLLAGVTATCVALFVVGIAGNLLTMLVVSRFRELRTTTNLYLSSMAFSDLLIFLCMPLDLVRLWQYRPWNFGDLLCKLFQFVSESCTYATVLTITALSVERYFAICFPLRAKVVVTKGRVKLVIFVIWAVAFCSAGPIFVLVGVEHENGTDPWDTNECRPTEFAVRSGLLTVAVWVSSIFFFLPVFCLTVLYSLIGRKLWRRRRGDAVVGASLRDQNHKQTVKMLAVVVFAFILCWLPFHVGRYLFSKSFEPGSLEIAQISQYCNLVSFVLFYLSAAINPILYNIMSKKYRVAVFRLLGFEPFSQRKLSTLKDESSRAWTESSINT
Attribute Measured: pIC50
# pIC50 = -log10(concentration in molar units)

pIC50 value, target or system Growth hormone secretagogue receptor type 1 (Homo sapiens, UniProt Q92847, M213A), for CC(C)C[C@H](NC(=O)[C@H](CC(C)C)NC(=O)[C@@H](Cc1c[nH]c2ccccc12)NC(=O)[C@H](Cc1ccccc1)NC(=O)[C@@H](Cc1c[nH]c2ccccc12)NC(=O)[C@H](C)N)C(N)=O : 9.46

* * *

Measured IC50 by item
molecular target: Growth hormone secretagogue receptor type 1 (Homo sapiens); assay: Displacement of [35S]MK677 from human ghrelin receptor expressed in african green monkey COS7 cells; assay type: cell-based, COS-7
Hi! Could you send only the number? It should be in µM, unit omitted.

Solved entries (count: 5):
Sample Smiles	Result Units	IC50
CC(C)C[C@H](NC(=O)[C@H](CC(C)C)NC(=O)[C@@H](Cc1c[nH]c2ccccc12)NC(=O)[C@H](Cc1ccccc1)NC(=O)[C@@H](Cc1c[nH]c2ccccc12)NC(=O)[C@@H](N)Cc1cnc[nH]1)C(N)=O	µM	0.058
CC(C)C[C@H](NC(=O)[C@H](CC(C)C)NC(=O)[C@@H](Cc1c[nH]c2ccccc12)NC(=O)[C@H](Cc1ccccc1)NC(=O)[C@H](N)Cc1c[nH]c2ccccc12)C(N)=O	µM	0.53
CC(C)C[C@H](NC(=O)[C@H](CC(C)C)NC(=O)[C@@H](Cc1c[nH]c2ccccc12)NC(=O)[C@H](Cc1ccccc1)NC(=O)[C@@H](Cc1c[nH]c2ccccc12)NC(=O)[C@@H](CCCNC(=N)N)NC(=O)[C@H]1CCCN1C(=O)[C@@H](N)CC(=O)O)C(N)=O	µM	0.21
CC(C)C[C@H](NC(=O)[C@H](CC(C)C)NC(=O)[C@@H](Cc1c[nH]c2ccccc12)NC(=O)[C@H](Cc1ccccc1)NC(=O)[C@@H](Cc1c[nH]c2ccccc12)NC(=O)[C@@H](N)CCCCN)C(N)=O	µM	0.013
NC(=O)CNC(=O)CNC(=O)[C@@H](Cc1c[nH]c2ccccc12)NC(=O)[C@H](Cc1ccccc1)NC(=O)[C@H](N)Cc1c[nH]c2ccccc12	µM	0.54

Okay, next one:
Form field IC50, entry CC(C)C[C@H](NC(=O)[C@H](CC(C)C)NC(=O)[C@@H](Cc1c[nH]c2ccccc12)NC(=O)[C@H](Cc1ccccc1)NC(=O)[C@@H](Cc1c[nH]c2ccccc12)NC(=O)[C@@H](N)CC(=O)O)C(N)=O : 0.06

* * *

molecular target: Growth hormone secretagogue receptor type 1 (Homo sapiens, UniProt Q92847, S174A); test: Inverse agonist activity at human ghrelin receptor Ser4:16Ala(Ser174) mutant expressed in african green monkey COS7 cells assessed as inhibition of constitutively stimulated inositol phosphate accumulation; type: functional, cell-based, COS-7
Attribute Measured: pIC50
FYI, pIC50 means -log10 of a concentration in mol per litre.

# pIC50 of CC(C)C[C@H](NC(=O)[C@H](CC(C)C)NC(=O)[C@@H](Cc1c[nH]c2ccccc12)NC(=O)[C@H](Cc1ccccc1)NC(=O)[C@@H](Cc1c[nH]c2ccccc12)NC(=O)[C@@H](N)CCCCN)C(N)=O = 8.59

* * *

target: Growth hormone secretagogue receptor type 1 (Homo sapiens, UniProt Q92847, F220A); test: Agonist activity at human ghrelin receptor Phe5:12Ala(Phe220) mutant expressed in african green monkey COS7 cells assessed as stimulation of constitutively stimulated inositol phosphate accumulation; type: functional, cell-based, COS-7
Sequence (Q92847 whole entry F220A): as the sequence (Q92847 whole entry M213A) above, with A213M, F220A counted along it
pIC50: −log10 of the molar value.
Attribute Measured: pIC50

// pIC50 value for CC(C)C[C@H](NC(=O)[C@H](CC(C)C)NC(=O)[C@@H](Cc1c[nH]c2ccccc12)NC(=O)[C@H](Cc1ccccc1)NC(=O)[C@@H](Cc1c[nH]c2ccccc12)NC(=O)[C@H](C)N)C(N)=O : < 6.00

* * *

target: Growth hormone secretagogue receptor type 1 (Homo sapiens, UniProt Q92847, F119S); assay: Agonist activity at human ghrelin receptor Phe3:04Ser(phe119) mutant expressed in african green monkey COS7 cells assessed as stimulation of constitutively stimulated inositol phosphate accumulation
Sequence (Q92847 whole entry F119S): as the sequence (Q92847 whole entry M213A) above, with F119S, A213M counted along it
Attribute Measured: pEC50
By convention, pEC50 is the negative base-10 log of a molar concentration.

Measured pEC50 of CC(C)C[C@H](NC(=O)[C@H](CC(C)C)NC(=O)[C@@H](Cc1c[nH]c2ccccc12)NC(=O)[C@H](Cc1ccccc1)NC(=O)[C@@H](Cc1c[nH]c2ccccc12)NC(=O)[C@@H](N)CCCCN)C(N)=O : 7.22

* * *

molecular target: Growth hormone secretagogue receptor type 1 (Homo sapiens, UniProt Q92847, R283Q); assay: Inverse agonist activity at human ghrelin receptor Arg6:20Gln(Arg283) mutant expressed in african green monkey COS7 cells assessed as inhibition of constitutively stimulated inositol phosphate accumulation; type: functional, cell-based, COS-7
pIC50: −log10 of the molar value.
Attribute Measured: pIC50

Noted pIC50 for CC(C)C[C@H](NC(=O)[C@H](CC(C)C)NC(=O)[C@@H](Cc1c[nH]c2ccccc12)NC(=O)[C@H](Cc1ccccc1)NC(=O)[C@@H](Cc1c[nH]c2ccccc12)NC(=O)[C@@H](N)CCCCN)C(N)=O , tested on Growth hormone secretagogue receptor type 1 (Homo sapiens, UniProt Q92847, R283Q): < 6.00

* * *

target: Growth hormone secretagogue receptor type 1 (Homo sapiens, UniProt Q92847, V216A); test: Inverse agonist activity at human ghrelin receptor Val5:08Ala(Val216) mutant expressed in african green monkey COS7 cells assessed as inhibition of constitutively stimulated inositol phosphate accumulation; format: functional, cell-based, COS-7
Attribute Measured: pIC50
# reply with the number alone; pIC50 is -log10 of concentration in mol/L

// pIC50 lookup, compound = CC(C)C[C@H](NC(=O)[C@H](CC(C)C)NC(=O)[C@@H](Cc1c[nH]c2ccccc12)NC(=O)[C@H](Cc1ccccc1)NC(=O)[C@@H](Cc1c[nH]c2ccccc12)NC(=O)[C@@H](N)CCCCN)C(N)=O , result: 7.57

* * *

Listing of entries alongside the reported pIC50.
target: Growth hormone secretagogue receptor type 1 (Homo sapiens); assay: Inverse agonist activity at human ghrelin receptor expressed in african green monkey COS7 cells assessed as constitutively stimulated inositol phosphate accumulation; assay type: functional, cell-based, COS-7
// returns pIC50 (minus log10 of molar concentration), number only

# compound CC(C)C[C@H](NC(=O)[C@H](CC(C)C)NC(=O)[C@@H](Cc1c[nH]c2ccccc12)NC(=O)[C@H](Cc1ccccc1)NC(=O)[C@@H](Cc1c[nH]c2ccccc12)NC(=O)[C@@H](N)CC(=O)O)C(N)=O ; its pIC50 = 6.59

Recorded pIC50 (compound CC(C)C[C@H](NC(=O)[C@H](CC(C)C)NC(=O)[C@@H](Cc1c[nH]c2ccccc12)NC(=O)[C@H](Cc1ccccc1)NC(=O)[C@@H](Cc1c[nH]c2ccccc12)NC(=O)[C@@H](N)CCCCN)C(N)=O ): 7.44

The compound identified as CC(C)C[C@H](NC(=O)[C@H](CC(C)C)NC(=O)[C@@H](Cc1c[nH]c2ccccc12)NC(=O)[C@H](Cc1ccccc1)NC(=O)[C@@H](Cc1c[nH]c2ccccc12)NC(=O)[C@@H](CCCNC(=N)N)NC(=O)[C@H]1CCCN1C(=O)[C@@H](N)CC(=O)O)C(N)=O registered its pIC50 at 6.95

The measured pIC50 associated with CC(C)C[C@H](NC(=O)[C@H](CC(C)C)NC(=O)[C@@H](Cc1c[nH]c2ccccc12)NC(=O)[C@H](Cc1ccccc1)NC(=O)[C@@H](Cc1c[nH]c2ccccc12)NC(=O)[C@H](C)N)C(N)=O reads 7.82

Consider CC(C)C[C@H](NC(=O)[C@H](CC(C)C)NC(=O)[C@@H](Cc1c[nH]c2ccccc12)NC(=O)[C@H](Cc1ccccc1)NC(=O)[C@@H](Cc1c[nH]c2ccccc12)NC(=O)[C@@H](N)CCC(N)=O)C(N)=O . Its measured pIC50 is 6.00

For record CC(C)C[C@H](NC(=O)[C@H](CC(C)C)NC(=O)[C@@H](Cc1c[nH]c2ccccc12)NC(=O)[C@H](Cc1ccccc1)NC(=O)[C@@H](Cc1c[nH]c2ccccc12)NC(=O)[C@@H](N)CCCN=C(N)N)C(N)=O the listed pIC50 is 7.68

The value of pIC50 measured for the compound NC(=O)CNC(=O)CNC(=O)[C@@H](Cc1c[nH]c2ccccc12)NC(=O)[C@H](Cc1ccccc1)NC(=O)[C@H](N)Cc1c[nH]c2ccccc12 turned out to be 6.80

Short answer for CC(C)C[C@H](NC(=O)[C@H](CC(C)C)NC(=O)[C@@H](Cc1c[nH]c2ccccc12)NC(=O)[C@H](Cc1ccccc1)NC(=O)[C@@H](Cc1c[nH]c2ccccc12)NC(=O)[C@@H](N)Cc1cnc[nH]1)C(N)=O : pIC50 was 7.17

Sourced from ChEMBL document CHEMBL1156448
